experiment: Pharmacokinetic analysis in mice (plasma, LC/MS); assay type: in vivo; details: male, mouse, in vivo, sc, 2.5 umol/kg
Where a SMILES comes first, the peptide text is derived from it. The star is where a group is joined. Palmitoyl = CCCCCCCCCCCCCCCC(=O)*
quantity-kind: half-life (h)
Write the value in h as a bare number.

Qu. Could you tell me which half-life is on file for CCCCCCCCCCCCCCCC(=O)N[C@@H](CCSC)C(=O)NCC(=O)N[C@@H](Cc1ccc(O)cc1)C(=O)N[C@@H](CCC(N)=O)C(=O)N[C@@H](CCCCN)C(=O)N[C@@H](CCCCN)C(=O)N[C@@H](CC(C)C)C(=O)N[C@@H](CCCNC(=N)N)C(=O)N[C@@H](CO)C(=O)N[C@@H](CCSC)C(=O)N[C@H](C(=O)N[C@@H](CC(=O)O)C(=O)N[C@@H](CCCCN)C(=O)N[C@@H](Cc1ccc(O)cc1)C(=O)N[C@@H](CCCNC(=N)N)C(=O)N[C@@H](CC(C)C)C(N)=O)[C@@H](C)O [Compound 48] (Palmitoyl-MGYQKKLRSMTDKYRL-NH2) ?
Ans. 1.5
